test: Pharmacokinetics of hydromorphone prodrug following IV administration to rats; assay type: in vivo; details: male, Sprague Dawley; rat IV, PC-5 2 mg/kg (0.29 μmol/kg); plasma; read-out: PC-5 Cmax ± sd
property name: Cmax

Lab note: measured Cmax of CCN(CCNC(=O)[C@H](CCCCN)NC(=O)CC(=O)O)C(=O)Oc1ccc2c3c1O[C@H]1C(=O)CCC4[C@@H](C2)N(C)CC[C@@]341 (stereo partly shown) was 3090 ng/mL

====

Target: trypsin (Bos taurus, UniProt P00760)
Construct: gene PRSS1
Sequence (P00760 24-246): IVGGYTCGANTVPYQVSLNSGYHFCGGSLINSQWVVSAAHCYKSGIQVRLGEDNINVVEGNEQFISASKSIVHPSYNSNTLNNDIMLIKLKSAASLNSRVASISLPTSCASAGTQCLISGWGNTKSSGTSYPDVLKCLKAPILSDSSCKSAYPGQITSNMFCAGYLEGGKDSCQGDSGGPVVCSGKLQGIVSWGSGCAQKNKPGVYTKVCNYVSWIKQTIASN
Assay: In vitro trypsin conversion of prodrug Compound PC-5 to hydromorphone
Format: biochemical
Details: no trypsin inhibitor; 0.761 mM prodrug, 0.02 to 0.0228 mg/ml trypsin, Tris pH 8, 37° C.; read-out: Prodrug trypsin half-life, Average ± sd (converted)
property name: half-life at 0.761 mM (h)
Numbers only, in h.

Lab note: measured half-life at 0.761 mM of CCN(CCNC(=O)[C@H](CCCCN)NC(=O)CC(=O)O)C(=O)Oc1ccc2c3c1O[C@H]1C(=O)CCC4[C@@H](C2)N(C)CC[C@@]341 (stereo partly shown) [Compound PC-5] was 2.81
